These measurements were taken from paper PMC12752606.

ATTRIBUTE MEASURED: IC50 (µM)
Write it as a number; the unit µM goes unstated.

## Task Identify the measured IC50 of Cc1ccc(Nc2ncc3c(n2)N(C)C(=O)N(c2cccc(N)c2)C3)cn1 for NSD1 (Homo sapiens, UniProt Q96L73).
## Result 13.3

* * *

# ASSAY OVERVIEW: Plasma pharmacokinetics after IV and PO administration
# Format: in vivo, male Sprague–Dawley rats
# SETUP CONDITIONS: male, Sprague-Dawley, rat, plasma, iv, 1 mg/kg, IV 1 mg/kg, individual rats R01-R03; read-out: Cl_obs
ATTRIBUTE MEASURED: clearance (mL/min/kg)
Quick note: give the figure in mL/min/kg, leave out the unit.

## Task Item Cc1ccc(Nc2ncc3c(n2)N(C)C(=O)N(c2cccc(N)c2)C3)cn1 has what recorded clearance?
## Result 99.3
